Kp uu values by entry
experiment: Unbound brain to plasma concentration ratio in rat; type: ADME, cell-free; settings: read-out: K(p,uu,brain)

{"smiles.repr": "COc1ccc(-c2nnc(-c3cc(OC(F)(F)F)ccc3-n3ccnc3)o2)cc1OC", "Kp uu": 0.65}

Consider the additional molecule presented here.
Inquiry: What value of Kp uu has been reported for the following molecule? COc1cc(-c2nnc(-c3cc(OC(F)(F)F)ccc3-n3cncn3)o2)ccc1OCC1CC1
Reply text: 0.43

###

experiment: Protein binding in rat plasma assessed as unbound fraction at 5 uM measured after 4 hrs by LC-MS/MS analysis; assay type: ADME, cell-free
readout.kind: fraction unbound at 4 h, 5 µM
Answer as a number with no unit attached.

Inquiry: Item COc1cc(-c2nnc(-c3cc(OC(F)(F)F)ccc3-n3cncn3)o2)ccc1OCC1CC1 has what recorded fraction unbound at 4 h, 5 µM?
Reply text: 0.038
